Molecular target: HIS-tagged RORγ-LBD (Homo sapiens)
Construct: HIS-tagged RORγ-LBD was recombinantly expressed in SF9 cells using a baculovirus expression system; made in house; host or cells: SF9 cells, baculovirus; crude lysate used
Assay: TR-FRET assay (Protocol B), RORγ-LBD lysate / biotinylated SRC1-2 LXXLL peptide
Format: biochemical
Details: unpurified RORγ-LBD lysate ~10 nM, SRC1-2 peptide 450 nM
Source text: Activation of RORgammaT activity can be measured using e.g. biochemical TR-FRET assay. In such an assay, interaction of cofactor-derived peptides with human RORgammaT-Ligand Binding Domain (LBD) can be measured. To identify novel antagonists of RORgammaT, an assay was developed which employs the interaction of RORgammaT with its co-activator peptide SRC1_2. […] The assay was run following three slightly different protocols, i.e. Protocol A, Protocol B, and Protocol C, which are described below. […]
pIC50: −log10 of the molar value.
property_measured: pIC50

Before answering, review these 4 worked examples.
O=C(O)c1ccc(-c2nn(C(=O)c3c(Cl)cccc3C(F)(F)F)c3cc(Br)cc(F)c23)cc1 [Example 24AX] : > 7.30
O=C(O)c1ccc(-c2nn(C(=O)c3c(Cl)cccc3C(F)(F)F)c3cccnc23)c(Cl)c1 [Example 24AG] : > 7.30
N#Cc1cc(-c2nn(C(=O)c3c(Cl)cccc3C(F)(F)F)c3cccc(F)c23)ccc1C(=O)O [Example 24U] : > 7.30
O=C(O)c1ccc(-c2nn(C(=O)c3c(Cl)cccc3C(F)(F)F)c3cc(CO)ccc23)cc1 [Example 24BE] : > 7.30

// recorded pIC50 for O=C(O)c1cc(F)c(-c2nn(C(=O)c3c(Cl)cccc3C(F)(F)F)c3cccnc23)cc1F [Example 24AK] : > 7.30

// recorded pIC50 for Cc1cc(C(=O)O)ccc1-c1nn(C(=O)c2c(Cl)cccc2C(F)(F)F)c2cccc(F)c12 [Example 24L] : > 7.30

// recorded pIC50 for COc1cc(C(=O)O)cc(OC)c1-c1nn(C(=O)c2c(Cl)cccc2C(F)(F)F)c2cccc(F)c12 [Example 24T] : < 5.00

// recorded pIC50 for O=C(c1c(Cl)cccc1C(F)(F)F)n1nc(-c2ccc(C(O)(C(F)(F)F)C(F)(F)F)cc2)c2c(F)cccc21 [Example 24D] : 5.00 to 6.30

// recorded pIC50 for CC(C)c1cc(-c2nn(C(=O)c3c(Cl)cccc3C(F)(F)F)c3ccccc23)ccc1C(=O)O [Example 24AP] : 5.00 to 6.30

// recorded pIC50 for COc1cccc(F)c1C(=O)n1nc(-c2ccc(C(=O)O)cc2)c2ncccc21 [Example 24AM] : > 7.30

// recorded pIC50 for O=C(O)c1cc(-c2nn(C(=O)c3c(Cl)cccc3C(F)(F)F)c3cccc(F)c23)ccc1O [Example 24Z] : < 5.00

// recorded pIC50 for O=C(O)c1ccc(-c2nn(C(=O)c3c(Cl)cccc3C(F)(F)F)c3cc(C(=O)NCCCO)ccc23)c(F)c1 [Example 25M] : > 7.30

// recorded pIC50 for O=C(O)c1ccc(-c2nn(C(=O)c3c(Cl)cccc3C(F)(F)F)c3cc(O)cc(F)c23)c(F)c1 [Example 24BD] : 5.00 to 6.30

// recorded pIC50 for O=C(NCCO)c1ccc2c(-c3ccc(C(=O)O)c(F)c3)nn(C(=O)c3c(Cl)cccc3C(F)(F)F)c2c1 [Example 25G] : 6.30 to 7.30

// recorded pIC50 for O=C(O)c1ccc(-c2nn(C(=O)c3c(Cl)cccc3C(F)(F)F)c3cccnc23)c(F)c1 [Example 24C] : > 7.30

###

target: 6His(GST)RORgamma-LBD (Homo sapiens, UniProt P51449); construct: the applied RORgamma-LBD contains a 6-His and GST tag; GST (N); assay: TR-FRET assay (Protocol A), RORgamma-LBD / SRC1_2 co-activator peptide interaction; conditions: SRC1_2 peptide 0.1 μM, RORgamma-LBD 10 nM, overnight incubation at 4° C.
pEC50: −log10 of the molar value.
property_measured: pEC50

O=C(O)c1ccc(-c2nn(S(=O)(=O)c3ccccc3OC(F)(F)F)c3ccccc23)cc1 [Example 15A] : 6.56
CCOc1ccccc1C(=O)n1nc(-c2ccc(C(=O)O)cc2)c2ccccc21 [Example 11J] : 5.72

[I] Cc1noc(C)c1S(=O)(=O)n1nc(-c2ccc(-c3nnn[nH]3)cc2)c2ccccc21 [Example 21D]
[II] Cc1cccc([N+](=O)[O-])c1C(=O)n1nc(-c2ccc(C(=O)O)cc2)c2ccccc21 [Example 11N]
[III] O=C(O)c1ccc(-c2nn(S(=O)(=O)c3ccc(Cl)c(Cl)c3Cl)c3ccccc23)cc1 [Example 13F]
Q: Arrange these compounds by their pEC50, starting with the largest number. Use the labels to give the requested order.
A: II, III, I

[I] O=S(=O)(c1cccc(Cl)c1)n1nc(-c2ccc(-c3nnn[nH]3)cc2)c2ccccc21 [Example 20]
[II] O=C(O)c1ccc(-c2nn(C(=O)c3c(Cl)cc(Cl)cc3Cl)c3ccccc23)cc1 [Example 11H]
[III] COC(=O)c1ccccc1C(=O)n1nc(-c2ccc(C(=O)O)cc2)c2ccccc21 [Example 11C]
Q: Arrange these compounds by their pEC50, starting with the largest number. Use the labels to give the requested order.
A: II, III, I

###

target: HIS-tagged RORγ-LBD (Homo sapiens); construct: HIS-tagged RORγ-LBD was recombinantly expressed in SF9 cells using a baculovirus expression system; made in house; host or cells: SF9 cells, baculovirus; crude lysate used; experiment: TR-FRET assay (Protocol B), RORγ-LBD lysate / biotinylated SRC1-2 LXXLL peptide; assay type: biochemical; settings: unpurified RORγ-LBD lysate ~10 nM, SRC1-2 peptide 450 nM
pIC50: −log10 of the molar value.
Property: pIC50; scope: individual compounds

Cc1cc(C(=O)O)c(F)cc1-c1nn(C(=O)c2c(Cl)cccc2C(F)(F)F)c2cccc(F)c12 [Example 24K] : > 7.30

// recorded pIC50 for O=C(O)c1c(O)cc(-c2nn(C(=O)c3c(Cl)cccc3C(F)(F)F)c3cccc(F)c23)cc1F [Example 26D] : > 7.30

// recorded pIC50 for COc1cc(-c2nn(C(=O)c3c(Cl)cccc3C(F)(F)F)c3cccnc23)ccc1C(=O)O [Example 24AI] : 6.30 to 7.30

###

Target: HIS-tagged RORγ-LBD (Homo sapiens)
Construct: HIS-tagged RORγ-LBD was recombinantly expressed in SF9 cells using a baculovirus expression system; made in house; host or cells: SF9 cells, baculovirus; crude lysate used
Sequence (P51449 269-508 limits assumed): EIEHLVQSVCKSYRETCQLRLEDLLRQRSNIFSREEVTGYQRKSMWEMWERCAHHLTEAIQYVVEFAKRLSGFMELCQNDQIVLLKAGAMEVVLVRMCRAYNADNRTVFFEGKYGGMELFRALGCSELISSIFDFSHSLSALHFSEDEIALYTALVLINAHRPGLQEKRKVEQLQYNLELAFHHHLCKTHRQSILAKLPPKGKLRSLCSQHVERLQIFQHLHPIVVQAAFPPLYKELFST
Test: TR-FRET assay (Protocol C), purified RORγ-LBD / biotinylated SRC1 LXXLL peptide
Assay type: biochemical
Conditions: purified RORγ-LBD 3 nM, SRC1 peptide 100 nM, overnight at 4° C.
Property: IC50; scope: individual compounds

// recorded IC50 for COc1cccc(F)c1C(=O)n1nc(-c2ccc(C(=O)O)cc2F)c2cccc(F)c21 [Example 24AW] : 50 to 500 nM

// recorded IC50 for O=C(O)c1ccc(-c2nn(C(=O)c3c(Cl)cccc3C(F)(F)F)c3cc(C(=O)N4CC(F)C4)ccc23)cc1 [Example 25T] : < 50 nM

// recorded IC50 for O=C(O)c1c(F)cc(-c2nn(C(=O)c3c(Cl)cccc3C(F)(F)F)c3cccc(F)c23)c(F)c1O [Example 26G] : < 50 nM

###

target: HIS-tagged RORγ-LBD (Homo sapiens); construct: HIS-tagged RORγ-LBD was recombinantly expressed in SF9 cells using a baculovirus expression system; made in house; host or cells: SF9 cells, baculovirus; crude lysate used; assay: TR-FRET assay (Protocol B), RORγ-LBD lysate / biotinylated SRC1-2 LXXLL peptide; type: biochemical; details: unpurified RORγ-LBD lysate ~10 nM, SRC1-2 peptide 450 nM
property_measured: IC50

Before answering, review these 6 worked examples.
O=C(O)c1ccc(-c2nn(C(=O)c3c(Cl)cccc3C(F)(F)F)c3cc(C(=O)NCCO)ccc23)c(F)c1 [Example 25H] : < 50 nM
CC(=O)Oc1cc(-c2nn(C(=O)c3c(Cl)cccc3C(F)(F)F)c3cccc(F)c23)ccc1C(=O)O [Example 26B] : < 50 nM
CN(C)C(=O)c1ccc2c(-c3ccc(C(=O)O)c(F)c3)nn(C(=O)c3c(Cl)cccc3C(F)(F)F)c2c1 [Example 25I] : 50 to 500 nM
O=C(O)c1ccc(-c2nn(C(=O)c3c(Cl)cccc3C(F)(F)F)c3cc(C(=O)NCCCO)ccc23)cc1 [Example 25L] : < 50 nM
CC(O)CNC(=O)c1ccc2c(-c3ccc(C(=O)O)cc3)nn(C(=O)c3c(Cl)cccc3C(F)(F)F)c2c1 (centres unmarked) [Example 25O] : < 50 nM
CC(=O)Oc1cc(-c2nn(C(=O)c3c(Cl)cccc3C(F)(F)F)c3cccnc23)ccc1C(=O)O [Example 26I] : < 50 nM

// recorded IC50 for O=C(O)c1cccc(-c2nn(C(=O)c3c(Cl)cccc3C(F)(F)F)c3cccnc23)c1 [Example 24AC] : 500 to 10000 nM

// recorded IC50 for O=C(O)c1ccc(-c2nn(C(=O)c3c(Cl)cccc3C(F)(F)F)c3cc(O)cc(F)c23)cc1 [Example 24BC] : 500 to 10000 nM

// recorded IC50 for CN(C)C(=O)c1ccc2c(-c3ccc(C(=O)O)cc3)nn(C(=O)c3c(Cl)cccc3C(F)(F)F)c2c1 [Example 25B] : < 50 nM

// recorded IC50 for O=C(O)c1ccc(-c2nn(C(=O)c3c(Cl)cccc3C(F)(F)F)c3cc(O)ccc23)c(F)c1 [Example 24BB] : < 50 nM

// recorded IC50 for CN(CCO)C(=O)c1ccc2c(-c3ccc(C(=O)O)cc3F)nn(C(=O)c3c(Cl)cccc3C(F)(F)F)c2c1 [Example 25R] : < 50 nM
